This section presents molecules with their documented IC50 values.
# tgt: S2-receptor (Rattus norvegicus, UniProt P14842)
# Construct: Caudal arteries from fasted male rats; from tissue; host or cells: rat caudal artery, helical strips
# Sequence (P14842 whole entry): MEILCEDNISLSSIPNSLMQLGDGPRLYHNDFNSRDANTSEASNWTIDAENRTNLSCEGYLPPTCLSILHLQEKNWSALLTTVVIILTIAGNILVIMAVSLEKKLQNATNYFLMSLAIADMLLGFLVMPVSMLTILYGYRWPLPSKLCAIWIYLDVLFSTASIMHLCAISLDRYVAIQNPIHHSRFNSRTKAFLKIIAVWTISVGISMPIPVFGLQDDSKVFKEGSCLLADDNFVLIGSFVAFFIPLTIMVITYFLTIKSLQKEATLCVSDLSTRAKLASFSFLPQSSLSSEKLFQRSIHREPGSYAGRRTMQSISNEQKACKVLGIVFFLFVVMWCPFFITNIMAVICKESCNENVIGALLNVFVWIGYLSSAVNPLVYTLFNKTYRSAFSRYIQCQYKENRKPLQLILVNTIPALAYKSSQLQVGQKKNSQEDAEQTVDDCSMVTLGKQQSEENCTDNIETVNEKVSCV
# method notes: antagonistic activity on the effect of serotonin on the caudal artery of the rat (caudal artery test)
# run conditions: rat caudal artery strips; serotonin 40 ng/ml; 5 minutes after adding the drug; read-out: ED50 (minimal concentration which reduces the amplitude of the serotonin-induced contraction to at least 50% of its normal value) (converted)
Counter-ions that a name gives are not always drawn.
Report the figure in pM without appending any unit label.

Field: example entries. Status: answers known.
# molecule, numeric result
records = [
    ("COc1ccc(C(=C2CCN(CCc3c(C)nc4sccn4c3=O)CC2)c2ccc(F)cc2)cc1 [Compound 144, monohydrochloride]", 1.06),
    ("Cc1cccc(C(=C2CCN(CCc3c(C)nc4n(c3=O)CCCS4)CC2)c2ccc(F)cc2)c1 [Compound 123]", 0.654),
    ("Cc1cccc(C(=C2CCN(CCc3c(C)nc4n(c3=O)CCCC4)CC2)c2ccc(F)cc2)c1 [Compound 138]", 2.65),
    ("Cc1nc2scc(C)n2c(=O)c1CCN1CCC(=C(c2ccc(F)cc2)c2cccc(F)c2)CC1 [Compound 27]", 0.651),
    ("Cc1cccc(C(=C2CCN(CCc3c(C)nc4sccn4c3=O)CC2)c2ccc(F)cc2)c1 [Compound 14]", 1.33),
    ("Cc1nc2ccccn2c(=O)c1CCN1CCC(=C(c2ccc(F)cc2)c2cccc(Cl)c2)CC1 [Compound 16]", 1.29),
]

Would you kindly look at the next entry?
[in] Request: IC50, test system S2-receptor (Rattus norvegicus, UniProt P14842), entry Cc1nc2n(c(=O)c1CCN1CCC(=C(c3ccc(F)cc3)c3cccc(Cl)c3)CC1)CCS2 [Compound 5]
[out] 0.323

Where do these numbers come from? They come from patent US4533665A.
